- system name: human NK1 receptor (Homo sapiens)
- Sequence (P25103 whole entry): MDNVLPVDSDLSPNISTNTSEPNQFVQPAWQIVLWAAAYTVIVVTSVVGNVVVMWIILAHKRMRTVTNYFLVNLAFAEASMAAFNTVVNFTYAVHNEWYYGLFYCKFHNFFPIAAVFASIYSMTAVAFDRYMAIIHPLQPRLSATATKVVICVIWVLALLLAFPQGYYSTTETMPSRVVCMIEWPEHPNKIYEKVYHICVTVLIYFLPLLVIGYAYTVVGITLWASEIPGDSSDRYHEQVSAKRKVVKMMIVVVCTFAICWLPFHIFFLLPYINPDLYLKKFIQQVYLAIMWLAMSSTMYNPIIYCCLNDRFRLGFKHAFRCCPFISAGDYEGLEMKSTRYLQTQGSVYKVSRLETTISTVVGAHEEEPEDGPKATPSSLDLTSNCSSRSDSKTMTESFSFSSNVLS
- measurement description: NK1 receptor affinity, [3H]substance P binding
- experimental conditions: human NK1 receptors in CHO cells, [3H]substance P 0.6 nM; read-out: pki NK1 (converted)
property label: Ki (nM)

// known answers, use as guide
1. Cc1cc(F)ccc1-c1cc(C2CCN(S(C)(=O)=O)CC2)ncc1N(C)C(=O)C(C)(C)c1cc(C(F)(F)F)cc(C(F)(F)F)c1 [Example 11] | 1.1
2. Cc1cc(F)ccc1-c1cc(C2=CCN(S(C)(=O)=O)CC2)ncc1N(C)C(=O)C(C)(C)c1cc(C(F)(F)F)cc(C(F)(F)F)c1 [Example 10] | 0.617

(I) CN(C(=O)C(C)(C)c1cc(C(F)(F)F)cc(C(F)(F)F)c1)c1cnc(OC(CO)CO)cc1-c1ccccc1Cl [Example 2]
(II) Cc1cc(F)ccc1-c1cc(SCCO)ncc1N(C)C(=O)C(C)(C)c1cc(C(F)(F)F)cc(C(F)(F)F)c1 [Example 4]
(III) Cc1cc(F)ccc1-c1cc(C2CCCN(S(C)(=O)=O)C2)ncc1N(C)C(=O)C(C)(C)c1cc(C(F)(F)F)cc(C(F)(F)F)c1 (racemic) [Example 12]
(IV) Cc1cc(F)ccc1-c1cc(OC[C@@H]2CCCN2)ncc1N(C)C(=O)C(C)(C)c1cc(C(F)(F)F)cc(C(F)(F)F)c1 [Example 3]
Q: Hey, quick one: sort these by Ki, low to high? Return value: ordered labels per request.
A: III, IV, I, II

(a) Cc1cc(F)ccc1-c1cc(-c2cccnc2)ncc1N(C)C(=O)C(C)(C)c1cc(C(F)(F)F)cc(C(F)(F)F)c1 [Example 5]
(b) CN(C(=O)C(C)(C)c1cc(C(F)(F)F)cc(C(F)(F)F)c1)c1cnc(OCCO)cc1-c1ccccc1Cl [Example 1]
Q: Field: lower recorded Ki (choose a or b ) Output the label that corresponds to your choice.
A: b

(A) Cc1cc(F)ccc1-c1cc(-c2ccc[n+]([O-])c2)ncc1N(C)C(=O)C(C)(C)c1cc(C(F)(F)F)cc(C(F)(F)F)c1 [Example 6]
(B) Cc1cc(F)ccc1-c1cc(C2=CCS(=O)(=O)CC2)ncc1N(C)C(=O)C(C)(C)c1cc(C(F)(F)F)cc(C(F)(F)F)c1 [Example 15]
Q: Of A and B , whose reported Ki is the larger number? Reply with the label of the item you choose.
A: A
